Biological target: Ret wt (Homo sapiens (Human), UniProt P07949)
Sequence (P07949 29-1114): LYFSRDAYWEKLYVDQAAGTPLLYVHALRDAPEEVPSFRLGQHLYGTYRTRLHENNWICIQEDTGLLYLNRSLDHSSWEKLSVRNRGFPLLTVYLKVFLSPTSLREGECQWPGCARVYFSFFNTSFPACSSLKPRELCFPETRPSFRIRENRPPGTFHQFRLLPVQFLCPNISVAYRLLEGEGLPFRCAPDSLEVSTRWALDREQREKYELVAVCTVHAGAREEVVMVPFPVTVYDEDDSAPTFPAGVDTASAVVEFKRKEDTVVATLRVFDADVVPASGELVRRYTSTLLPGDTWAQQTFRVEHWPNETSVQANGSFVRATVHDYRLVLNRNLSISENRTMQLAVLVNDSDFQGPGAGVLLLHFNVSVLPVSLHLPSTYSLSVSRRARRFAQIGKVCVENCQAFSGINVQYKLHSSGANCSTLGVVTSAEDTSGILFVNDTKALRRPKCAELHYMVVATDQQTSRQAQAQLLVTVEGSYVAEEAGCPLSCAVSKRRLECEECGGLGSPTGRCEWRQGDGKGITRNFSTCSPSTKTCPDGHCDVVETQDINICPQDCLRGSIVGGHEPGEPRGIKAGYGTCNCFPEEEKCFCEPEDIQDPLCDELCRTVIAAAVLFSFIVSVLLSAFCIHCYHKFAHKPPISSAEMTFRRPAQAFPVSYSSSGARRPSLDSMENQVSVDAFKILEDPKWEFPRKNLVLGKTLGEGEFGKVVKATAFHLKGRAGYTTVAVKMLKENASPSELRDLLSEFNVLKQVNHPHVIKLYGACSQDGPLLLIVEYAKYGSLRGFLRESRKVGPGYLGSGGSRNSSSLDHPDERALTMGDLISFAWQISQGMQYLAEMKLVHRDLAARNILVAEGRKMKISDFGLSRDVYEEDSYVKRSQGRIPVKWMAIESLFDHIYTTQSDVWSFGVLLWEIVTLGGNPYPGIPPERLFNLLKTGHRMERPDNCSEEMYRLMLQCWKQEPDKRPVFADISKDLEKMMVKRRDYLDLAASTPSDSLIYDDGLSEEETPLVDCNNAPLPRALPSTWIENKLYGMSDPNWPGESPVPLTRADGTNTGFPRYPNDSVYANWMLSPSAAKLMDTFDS
Assay: HTRF kinase inhibition assay, Ret wt
Type: biochemical
Conditions: HTRF method
Measured IC50 of individual entries

entry-smiles	IC50, nM
C#Cc1cccc(CN2CCN(c3ccc(-c4cc(-c5cnn(C)c5)cn5ncc(C#N)c45)cn3)CC2)c1F	0.57
Cn1cc(-c2cc(-c3ccc(N4CC5CC(C4)N5CC#Cc4ccc(F)nc4)nc3)c3c(C#N)cnn3c2)cn1	0.2
C#Cc1ccc(C(=O)N2CCN(c3ccc(-c4cc(-c5cnn(C)c5)cn5ncc(C#N)c45)cn3)CC2)cc1F	1.57
Cn1cc(-c2cc(-c3ccc(N4CC5CC(C4)N5CC#Cc4cccnc4F)nc3)c3c(C#N)cnn3c2)cn1	0.14
C#Cc1cccc(CN2C3CC2CN(c2ccc(-c4cc(-c5cnn(C)c5)cn5ncc(C#N)c45)cn2)C3)n1	0.55
COc1cncc(C#CC(=O)N2C3CC2CN(c2ccc(-c4cc(-c5cnn(C)c5)cn5ncc(C#N)c45)cn2)C3)c1	1.1
COc1cc(C#CCN2CCN(c3ccc(-c4cc(-c5cnn(C)c5)cn5ncc(C#N)c45)cn3)CC2)ccn1	3.51

Ref: patent US12209085B2
